TARGET_OR_SYSTEM: mouse FAP (Mus musculus)
Construct: biotinylated His, Avi tag, mouse FAP (26-761, FAP-M82Q5); His; Avi tag (biotinylated); purchased AcroBiosystems FAP-M82Q5
Sequence (P97321 26-761): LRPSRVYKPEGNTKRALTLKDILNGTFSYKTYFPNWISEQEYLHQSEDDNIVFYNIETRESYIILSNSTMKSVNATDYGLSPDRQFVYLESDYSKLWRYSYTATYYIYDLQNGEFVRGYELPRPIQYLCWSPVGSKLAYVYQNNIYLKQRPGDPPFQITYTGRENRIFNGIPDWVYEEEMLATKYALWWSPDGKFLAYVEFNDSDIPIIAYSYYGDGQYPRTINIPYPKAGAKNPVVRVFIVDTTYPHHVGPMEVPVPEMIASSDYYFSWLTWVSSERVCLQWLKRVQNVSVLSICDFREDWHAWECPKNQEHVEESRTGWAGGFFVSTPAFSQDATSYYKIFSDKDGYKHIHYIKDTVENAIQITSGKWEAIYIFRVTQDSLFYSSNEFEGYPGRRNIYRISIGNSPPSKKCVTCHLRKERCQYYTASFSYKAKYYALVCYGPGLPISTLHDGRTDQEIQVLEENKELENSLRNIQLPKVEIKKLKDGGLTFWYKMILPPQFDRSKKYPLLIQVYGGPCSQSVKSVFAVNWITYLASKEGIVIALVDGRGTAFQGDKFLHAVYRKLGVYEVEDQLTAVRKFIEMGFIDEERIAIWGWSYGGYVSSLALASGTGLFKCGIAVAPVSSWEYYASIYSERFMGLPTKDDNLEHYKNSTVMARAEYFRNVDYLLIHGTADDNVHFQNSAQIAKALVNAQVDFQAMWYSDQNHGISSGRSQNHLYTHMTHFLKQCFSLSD
PROTOCOL_NOTES: Surface plasmon resonance (SPR) for peptide affinity, mouse FAP
Format: binding
Starred links: 1 amine or outer side, 2 acyl side, 3 side chain; linkers in the order of their positions; H or OH if unused. Non-standard residues stand in square brackets, D forms with d. F(4amPEG2NHDOTA-Lu) = lutetium complex of (S)-2,2',2''-(10-(1-(4-(2-amino-2-carboxyethyl)phenyl)-3,12-dioxo-5,8-dioxa-2,11-diazatridecan-13-yl)-1,4,7,10-tetraazacyclododecane-1,4,7-triyl)triacetic acid (Phe with 4-aminomethyl-PEG2-DOTA-Lu), O=C([O-])CN1CCN(CC(=O)[O-])CCN(CC(=O)NCCOCCOCC(=O)NCc2ccc(C[C@H](N[*:1])C(=O)[*:2])cc2)CCN(CC(=O)[O-])CC1.[Lu+3]; F4(amBAlaDOTALu) = lutetium complex of (S)-2,2',2''-(10-(2-((3-((4-(2-amino-2-carboxyethyl)benzyl)amino)-3-oxopropyl)amino)-2-oxoethyl)-1,4,7,10-tetraazacyclododecane-1,4,7-triyl)triacetic acid (Phe with 4-aminomethyl-βAla-DOTA-Lu), O=C([O-])CN1CCN(CC(=O)[O-])CCN(CC(=O)NCCC(=O)NCc2ccc(C[C@H](N[*:1])C(=O)[*:2])cc2)CCN(CC(=O)[O-])CC1.[Lu+3]; F(4OEtNHDOTA-Ga) = gallium complex of (S)-2,2',2''-(10-(2-((2-(4-(2-amino-2-carboxyethyl)phenoxy)ethyl)amino)-2-oxoethyl)-1,4,7,10-tetraazacyclododecane-1,4,7-triyl)triacetic acid (Phe with 4-O-ethylamino-DOTA-Ga), O=C([O-])CN1CCN(CC(=O)[O-])CCN(CC(=O)NCCOc2ccc(C[C@H](N[*:1])C(=O)[*:2])cc2)CCN(CC(=O)[O-])CC1.[Ga+3]; F(4OEtnHNODAGA-Lu) = lutetium complex of 2,2'-(7-(4-((2-(4-((S)-2-amino-2-carboxyethyl)phenoxy)ethyl)amino)-1-carboxy-4-oxobutyl)-1,4,7-triazonane-1,4-diyl)diacetic acid (Phe with 4-O-ethylamino-NODAGA-Lu); K(COpipzaa) = N6-(4-(carboxymethyl)piperazine-1-carbonyl)-L-lysine, O=C(NCCCC[C@H](N[*:1])C(=O)[*:2])N1CCN(CC(=O)[*:3])CC1; NMeF = CN[C@@H](Cc1ccccc1)C(=O)O; Ahp(2) = CCCCC[C@H](N)C(=O)O

SUBSTANCE | TARGET_OR_SYSTEM | READING_QUALIFIER | Kd / nM
Gly-Gly-NMePhe-F(4OEtNHDOTA-Ga)-Ahp-Trp-Gly-K(COpipzaa)-Asp-D-Pro (cyclo(GG[NMeF][F(4OEtNHDOTA-Ga)][Ahp(2)]WG[K(COpipzaa)]D[dP]); also: Ga complex of DOTA) [Example C50] | mouse FAP (Mus musculus) | < | 0.02
Gly-Gly-NMePhe-F(4amPEG2NHDOTA-Lu)-Ahp-Trp-Gly-Tyr-Asp-D-Pro (cyclo(GG[NMeF][F(4amPEG2NHDOTA-Lu)][Ahp(2)]WGYD[dP]); also: Lu complex) [Example C15] | mouse FAP (Mus musculus) | = | 0.013
Gly-Gly-NMePhe-F4(amBAlaDOTALu)-Ahp-Trp-Gly-Tyr-Asp-D-Pro (cyclo(GG[NMeF][F4(amBAlaDOTALu)][Ahp(2)]WGYD[dP]); also: Lu complex) [Example C10] | mouse FAP (Mus musculus) | = | 0.033
Gly-Gly-NMePhe-F(4OEtnHNODAGA-Lu)-Ahp-Trp-Gly-Tyr-Asp-D-Pro (cyclo(GG[NMeF][F(4OEtnHNODAGA-Lu)][Ahp(2)]WGYD[dP]); also: Lu complex) [Example C30] | mouse FAP (Mus musculus) | < | 0.017
